# TARGET: FLT1 (human) (UniProt P17948)
# Sequence (P17948 whole entry, looked up): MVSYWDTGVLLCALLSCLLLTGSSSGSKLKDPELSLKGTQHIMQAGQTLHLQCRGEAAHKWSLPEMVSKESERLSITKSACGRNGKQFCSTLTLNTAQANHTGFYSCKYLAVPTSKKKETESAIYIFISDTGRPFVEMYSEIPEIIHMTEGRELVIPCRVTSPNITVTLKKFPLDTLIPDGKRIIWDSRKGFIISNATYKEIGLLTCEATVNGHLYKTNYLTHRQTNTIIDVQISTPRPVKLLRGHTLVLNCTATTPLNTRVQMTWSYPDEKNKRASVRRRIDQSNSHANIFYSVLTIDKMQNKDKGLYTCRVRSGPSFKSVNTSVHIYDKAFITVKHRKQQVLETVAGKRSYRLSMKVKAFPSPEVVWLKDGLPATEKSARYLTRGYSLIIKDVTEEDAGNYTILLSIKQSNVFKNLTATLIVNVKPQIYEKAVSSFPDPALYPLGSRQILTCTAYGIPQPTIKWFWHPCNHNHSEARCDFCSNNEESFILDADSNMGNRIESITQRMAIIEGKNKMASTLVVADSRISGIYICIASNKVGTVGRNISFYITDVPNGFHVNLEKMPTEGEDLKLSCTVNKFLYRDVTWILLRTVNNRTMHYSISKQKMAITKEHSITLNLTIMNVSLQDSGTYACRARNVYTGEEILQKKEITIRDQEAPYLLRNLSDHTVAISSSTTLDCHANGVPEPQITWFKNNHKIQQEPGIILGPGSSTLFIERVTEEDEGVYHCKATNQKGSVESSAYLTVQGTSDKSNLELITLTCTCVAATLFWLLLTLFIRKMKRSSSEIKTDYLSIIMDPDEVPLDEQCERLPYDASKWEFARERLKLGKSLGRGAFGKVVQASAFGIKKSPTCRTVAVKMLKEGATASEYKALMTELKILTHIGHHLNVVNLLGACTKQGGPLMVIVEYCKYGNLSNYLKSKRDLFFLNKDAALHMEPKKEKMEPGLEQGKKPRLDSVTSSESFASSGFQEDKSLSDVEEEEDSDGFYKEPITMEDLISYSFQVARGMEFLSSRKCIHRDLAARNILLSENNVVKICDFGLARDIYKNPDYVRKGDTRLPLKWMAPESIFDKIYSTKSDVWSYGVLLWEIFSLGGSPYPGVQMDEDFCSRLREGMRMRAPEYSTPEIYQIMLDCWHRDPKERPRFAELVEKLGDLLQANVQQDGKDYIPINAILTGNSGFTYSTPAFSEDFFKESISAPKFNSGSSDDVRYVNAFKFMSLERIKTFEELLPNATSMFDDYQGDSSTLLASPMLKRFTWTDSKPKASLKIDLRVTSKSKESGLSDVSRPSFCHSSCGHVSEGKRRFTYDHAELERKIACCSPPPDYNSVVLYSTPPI
# ASSAY DETAILS: radiometric filter-binding kinase assay, Kinase HotSpot
# TEST CONDITIONS: compound 0.5 µM; ATP 10 µM
Simple rule here: residual activity less than 90% is class 1, otherwise class 0.

Exercise: Below 90% on residual activity? Entry O=c1c(-c2ccc(F)cc2)c(-c2ccncc2)[nH]n1-c1ccc(Cl)cc1
Solution: class 1

Exercise: Below 90% on residual activity? Entry N/C(=N\N=C/c1ccc(-c2cccc([N+](=O)[O-])c2)o1)N[N+](=O)[O-]
Solution: class 0

Exercise: Below 90% on residual activity? Entry N#CCCc1ccc2c(c1)-c1[nH]c3ccc([N+](=O)[O-])cc3c1CC(=O)N2
Solution: class 0

Exercise: Below 90% on residual activity? Entry Cc1cc(Nc2nc(-c3ccccc3)nc3ccccc23)n[nH]1
Solution: class 1

Exercise: Below 90% on residual activity? Entry O=C(c1ccccc1)c1ccc(N2CCOCC2)cc1O
Solution: class 0

Exercise: Below 90% on residual activity? Entry O=C1NC(=O)c2cc(Nc3ccc(F)cc3)c(Nc3ccc(F)cc3)cc21
Solution: class 1

Exercise: Below 90% on residual activity? Entry COc1cc2ncnc(Nc3ccc(O)c(Br)c3)c2cc1OC
Solution: class 1

Data credit: the kinase profiling compilation of Christmann-Franck et al. (2016)
